Experiment: in vitro
Settings: rat, microsomes
metric: CLint scaled at 1 µM (mL/min/kg)

[I] O=C1CCC(N2Cc3cc(CNC(=O)Nc4ccc(CCCOC5CNC5)c(Cl)c4)ccc3C2=O)C(=O)N1 (centres unmarked)
[II] O=C1CCC(N2Cc3cc(CNC(=O)Nc4ccc(CCCOC5CCNCC5)c(Cl)c4)ccc3C2=O)C(=O)N1 (centres unmarked)
Which record shows the lower CLint scaled at 1 µM: the first, I , or the second, II ? // caller expects the label of the chosen entry
I

----------
Experiment: in vitro
Details: dog, microsomes
metric: half-life at 1 µM (h)
// return numeric value only (unit: h, not printed)

For record O=C1CCC(N2Cc3cc(CNC(=O)Nc4ccc(CCCOC5CCNCC5)c(Cl)c4)ccc3C2=O)C(=O)N1 (stereo not shown) [Compound B61] the listed half-life at 1 µM is 4.88
